# MEASURED_ON: potassium channel hERG (Homo sapiens (Human), UniProt Q12809)
# Sequence (Q12809 whole entry): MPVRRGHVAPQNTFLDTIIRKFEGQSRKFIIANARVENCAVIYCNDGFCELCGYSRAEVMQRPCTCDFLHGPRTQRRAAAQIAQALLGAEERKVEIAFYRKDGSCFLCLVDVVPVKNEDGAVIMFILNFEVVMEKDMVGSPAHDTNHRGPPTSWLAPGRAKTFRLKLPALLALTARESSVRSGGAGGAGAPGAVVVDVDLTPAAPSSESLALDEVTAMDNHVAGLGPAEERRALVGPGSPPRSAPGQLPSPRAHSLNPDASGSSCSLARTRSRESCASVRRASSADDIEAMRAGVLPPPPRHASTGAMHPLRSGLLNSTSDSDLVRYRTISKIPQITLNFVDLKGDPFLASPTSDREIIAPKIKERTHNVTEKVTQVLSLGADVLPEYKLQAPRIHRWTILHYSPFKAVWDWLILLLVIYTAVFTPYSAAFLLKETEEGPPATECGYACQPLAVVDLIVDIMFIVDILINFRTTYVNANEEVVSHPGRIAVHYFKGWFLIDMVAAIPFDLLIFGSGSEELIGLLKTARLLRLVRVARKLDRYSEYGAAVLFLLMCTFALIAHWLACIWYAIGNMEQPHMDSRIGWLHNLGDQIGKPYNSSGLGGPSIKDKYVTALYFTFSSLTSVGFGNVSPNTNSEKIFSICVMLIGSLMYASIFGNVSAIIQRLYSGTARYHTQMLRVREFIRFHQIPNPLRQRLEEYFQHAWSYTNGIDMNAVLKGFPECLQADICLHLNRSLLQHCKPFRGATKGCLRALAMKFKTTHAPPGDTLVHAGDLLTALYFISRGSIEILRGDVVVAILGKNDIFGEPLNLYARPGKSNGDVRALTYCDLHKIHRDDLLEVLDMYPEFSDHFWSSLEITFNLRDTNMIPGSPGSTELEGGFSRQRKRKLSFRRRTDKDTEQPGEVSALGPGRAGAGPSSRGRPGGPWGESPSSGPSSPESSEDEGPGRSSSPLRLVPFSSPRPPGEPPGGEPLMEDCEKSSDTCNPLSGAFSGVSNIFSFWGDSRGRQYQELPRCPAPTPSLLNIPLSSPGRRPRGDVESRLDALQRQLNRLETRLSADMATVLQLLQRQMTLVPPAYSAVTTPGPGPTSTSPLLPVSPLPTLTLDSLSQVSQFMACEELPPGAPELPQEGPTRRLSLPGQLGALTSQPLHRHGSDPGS
# METHOD_NOTES: In vitro testing for hERG inhibition
# Assay type: biochemical
# CONDITION_PARAMETERS: in vitro toxicity potassium channel hERG
pIC50: −log10 of the molar value.
pIC50 values by entry
READOUT_TYPE: pIC50

| MOLECULE | MEASURED_ON | READOUT_NUMBER |
| --- | --- | --- |
| CC(=O)N1CCN(C(C=C(C)C)CC(C)(C)c2ccc(Cl)cc2)CC1 (stereo not shown) | potassium channel hERG (Homo sapiens (Human), UniProt Q12809) | 4.82 |
| CC(C)=CC(CC(C)(C)c1ccc(C(F)(F)F)cc1)N1CCC(CCO)CC1 (stereo not shown) | potassium channel hERG (Homo sapiens (Human), UniProt Q12809) | 4.99 |
| COC1CCN(C(C=C(C)C)CC(C)(C)c2ccc(C(F)(F)F)cc2)CC1 (stereo not shown) | potassium channel hERG (Homo sapiens (Human), UniProt Q12809) | 5.09 |
| COCC1CCCN1C(C)CC(C)(C)c1ccc(Cl)cc1 (stereo not shown) | potassium channel hERG (Homo sapiens (Human), UniProt Q12809) | 4.89 |
| CC(CC(C)(C)c1ccc(Cl)cc1)N1CCCC1CO (stereo not shown) | potassium channel hERG (Homo sapiens (Human), UniProt Q12809) | 4.68 |
| CCOC1CCN(C(C=C(C)C)CC(C)(C)c2ccc(F)cc2)CC1 (stereo not shown) | potassium channel hERG (Homo sapiens (Human), UniProt Q12809) | 4.14 |
| CC(=O)N1CCN(C(C=C(C)C)CC(C)(C)c2ccc(C(F)(F)F)cc2)CC1 (stereo not shown) | potassium channel hERG (Homo sapiens (Human), UniProt Q12809) | 4.77 |
| CC(C)=CC(CC(C)(C)c1ccc(Cl)cc1)N1CCC(C2CCN(C)CC2)CC1 (stereo not shown) | potassium channel hERG (Homo sapiens (Human), UniProt Q12809) | 5.31 |
| CC(C)=CC(CC(C)(C)c1ccc(F)cc1)N1CCC(N2CCOCC2)CC1 (stereo not shown) | potassium channel hERG (Homo sapiens (Human), UniProt Q12809) | 5.13 |
| CC(C)=CC(COc1ccccc1)N1CCC(O)CC1 (stereo not shown) | potassium channel hERG (Homo sapiens (Human), UniProt Q12809) | 4.21 |
| CC(C)=CC(CC(C)(C)c1ccc(C(F)(F)F)cc1)N1CCC(O)CC1 (stereo not shown) | potassium channel hERG (Homo sapiens (Human), UniProt Q12809) | 4.79 |
| CC(C)=CC(CC(C)(C)c1ccc(Cl)cc1)N1CCC(CCOC2CCOC2)CC1 (stereo not shown) | potassium channel hERG (Homo sapiens (Human), UniProt Q12809) | 5.74 |
| CC(C)=CC(CC(C)(C)c1ccc(Cl)cc1)N1CCC2(CC1)OCc1ccccc12 (stereo not shown) | potassium channel hERG (Homo sapiens (Human), UniProt Q12809) | 6.00 |
| COCC1CCCN1C(C=C(C)C)CC(C)(C)c1ccc(F)cc1 (stereo not shown) | potassium channel hERG (Homo sapiens (Human), UniProt Q12809) | 4.85 |
| COCCC1(O)CCN(C(C=C(C)C)CC(C)(C)c2ccc(C(F)(F)F)cc2)CC1 (stereo not shown) | potassium channel hERG (Homo sapiens (Human), UniProt Q12809) | 5.36 |
| CC(CC(C)(C)c1ccc(C(F)(F)F)cc1)N1CC[C@H](O)C1 (stereo partly shown) | potassium channel hERG (Homo sapiens (Human), UniProt Q12809) | 4.62 |
| CC(C)=CC(CC(C)(C)c1ccc(C(F)(F)F)cc1)N1CC[C@H](O)C1 (stereo partly shown) | potassium channel hERG (Homo sapiens (Human), UniProt Q12809) | 4.54 |
| CC(C)=CC(CCc1ccc(F)cc1)N1CCC(C2CCOCC2)CC1 (stereo not shown) [Compound 21] | potassium channel hERG (Homo sapiens (Human), UniProt Q12809) | 6.08 |
| CC(C)=CC(CC(C)(C)c1ccc(F)cc1)N1CCC2(CC1)OCc1ccccc12 (stereo not shown) | potassium channel hERG (Homo sapiens (Human), UniProt Q12809) | 5.52 |
| COC[C@H]1CCCN1C(C)CC(C)(C)c1ccc(Cl)cc1 (stereo partly shown) | potassium channel hERG (Homo sapiens (Human), UniProt Q12809) | 5.41 |
| CC(C)=CC(CC(C)(C)c1ccc(C(F)(F)F)cc1)N1CCC[C@H]1CO (stereo partly shown) | potassium channel hERG (Homo sapiens (Human), UniProt Q12809) | 4.70 |
| COC1CCN(C(C)CC(C)(C)c2ccc(Cl)cc2)CC1 (stereo not shown) | potassium channel hERG (Homo sapiens (Human), UniProt Q12809) | 5.92 |

* * *

# MEASURED_ON: potassium channel hERG (Homo sapiens (Human))
# METHOD_NOTES: In vitro testing for hERG inhibition
# Assay type: biochemical
# CONDITION_PARAMETERS: in vitro toxicity potassium channel hERG
pIC50: −log10 of the molar value.
// label = Y if pIC50 is not less than 5, otherwise N

| MOLECULE | CLASS_LABEL |
| --- | --- |
| CC(C)=CC(CC(C)(C)c1ccc(F)cc1)N1CCC(CCO)CC1 (stereo not drawn) [Compound 58] | N |
| CC(C)=C[C@H](CC(C)(C)c1ccc(F)cc1)N1CCC[C@@H]1CO [Compound 242] | N |
| CC(C)=CC(CC(C)(C)c1ccc(Cl)cc1)N1CCC(O)CC1 (stereo not drawn) [Compound 77] | N |
| CC(C)(CCN1CCC(O)CC1)c1ccc(Cl)cc1 [Compound 8] | N |
| CC(C)=CC(CC(C)(C)c1ccccc1)N1CCC(C)(O)CC1 (stereo not drawn) [Compound 213] | Y |

* * *

# METHOD_NOTES: log P
# Format: physicochemical
log P values by entry
READOUT_TYPE: log P

| COMPOUND | READOUT_NUMBER |
| --- | --- |
| COCCC1(O)CCN(C(C=C(C)C)CC(C)(C)c2ccccc2)CC1 (centres unmarked) [Compound 219] | 3.91 |
| COc1ccc(C(C)(C)CC(C=C(C)C)NCCCC2CCOCC2)cc1 (centres unmarked) [Compound 106] | 5.35 |
| CC(C)=CC(CC(C)(C)c1ccc(Cl)cc1)N1CCC(C2CCN(C)CC2)CC1 (centres unmarked) [Compound 43] | 6.37 |
| COCCCC1CCN(CCC(C)(C)c2ccc(Cl)cc2)CC1 [Compound 324] | 5.07 |
| COCCOCCC1CCN(C(C=C(C)C)CC(C)(C)c2ccc(Cl)cc2)CC1 (centres unmarked) [Compound 162] | 6 |

* * *

# METHOD_NOTES: log P
# Assay type: physicochemical
Each entry belongs to exactly one class, chosen by where its log P falls: c1: < 5; c2: ≥ 5 and < 6; c3: ≥ 6

| COMPOUND | CLASS_LABEL |
| --- | --- |
| CC(C)=CC(CC(C)(C)c1ccc(S(C)(=O)=O)cc1)N1CCC2(CCOCC2)CC1 (centres unmarked) | c1 |
| CCOC(=O)C1CCN(C(C=C(C)C)CC(C)(C)c2ccc(F)cc2)CC1 (centres unmarked) | c2 |
| CC(C)=CC(CC(C)(C)c1ccc(Cl)cc1)N1CCC(c2ccc(S(C)(=O)=O)cc2)CC1 (centres unmarked) | c3 |
| CC(C)=CC(CC(C)(C)c1ccc(Cl)cc1)N1CCC(C(F)(F)F)CC1 (centres unmarked) | c3 |
| CC(C)=CC(NCC1CCOCC1)C(C)(C)Oc1ccc(Cl)cc1 (centres unmarked) | c1 |
| CC(C)=CC(CC(C)(C)c1ccc(C(F)(F)F)cc1)N1CCC(CCO)CC1 (centres unmarked) | c2 |
| CC(C)=CC(CC(C)(C)c1ccc(C)cc1)NCCC1CCOCC1 (centres unmarked) | c2 |
| CC(C)=CC(CC(C)(C)c1ccc(F)cc1)N1CCN(C(=O)OC(C)(C)C)CC1 (centres unmarked) | c2 |
| COc1cc(CCC(C)(C)N2Cc3cccc(C(=O)N4CCN(C(=O)C(Cc5ccccc5)N(C)C)CC4)c3C2)ccc1O (centres unmarked) | c1 |

* * *

# METHOD_NOTES: log P
# Assay type: physicochemical
Each entry belongs to exactly one class, chosen by where its log P falls: lo: < 4; med: ≥ 4 and < 5; hi: ≥ 5

| MOLECULE | CLASS_LABEL |
| --- | --- |
| COc1cc(CCC(C)(C)N2Cc3cccc(C(=O)N4CCN(C(=O)OCCOC(C)=O)CC4)c3C2)ccc1O | lo |
| CC(CC(C)(C)c1ccc(C(F)(F)F)cc1)N1CCC(O)CC1 (stereo not shown) | lo |
| CC(C)=CC(CC(C)(C)c1ccc(F)cc1)N1CCN(C(=O)C2CC2)CC1 (stereo not shown) | med |
| COc1cc(CCC(C)(C)N2Cc3cccc(C(=O)N4CCN(C(=O)[C@@H]5CCCN5C)CC4)c3C2)ccc1O | lo |
| CCOC(=O)C1CCN(CCC(C)(C)c2ccc(C(F)(F)F)cc2)CC1 | med |
| CC(C)=CC(CC(C)(C)c1ccc(C(F)(F)F)cc1)N1CCC(Oc2ccccc2)CC1 (stereo not shown) | hi |
| CCCCC1(OC(=O)NC(C)C)CCN(C(C=C(C)C)CC(C)(C)c2ccc(Cl)cc2)CC1 (stereo not shown) | hi |
| CC(C)=CC(CC(C)(C)c1ccc(N2CCOCC2)cc1)N1CCC(C)(O)CC1 (stereo not shown) | med |
| CC(C)=CC(CC(C)(C)c1ccc(C(F)(F)F)cc1)N1CCC(C)(OC(=O)NC(C)C)CC1 (stereo not shown) | hi |
| COCCNC(C=C(C)C)C(C)(C)Oc1ccc(Cl)cc1 (stereo not shown) | med |
| CCC(C)(O)CCNC(C)CC(C)(C)c1ccc(C(F)(F)F)cc1 (stereo not shown) | med |
| CC(C)=CC(CC(C)(C)c1ccc(Cl)cc1)N1CCC(c2ccnc(N3CCOCC3)c2)CC1 (stereo not shown) | hi |
| CC(C)=CC(CC(C)(C)c1ccc(OC(C)(C)C)cc1)N1CCC2(CCOCC2)CC1 (stereo not shown) | hi |
| CC(C)=CC(CC(C)(C)c1ccc(Cl)cc1)N1CCC(O)(c2ccccc2)CC1 (stereo not shown) | hi |
| CC(C)=CC(CC(C)(C)c1ccc(C(F)(F)F)cc1)N1CCC(O)CC1 (stereo not shown) | med |
| CC(C)(CCN1CC[C@@H](O)C1)c1ccccc1 | lo |
| CC(C)=CC(CC(C)(C)c1ccccc1)N1CCC(C2CCOCC2)CC1 (stereo not shown) | hi |
| COC[C@H]1CCCN1CCC(C)(C)c1ccc(F)cc1 | lo |
| COc1ccc(CCC(C=C(C)C)N2CCOCC2)cc1 (stereo not shown) | lo |
| CC(C)=CC(CC(C)(C)c1ccc(F)cc1)N1CCC(CCOC2CCOC2)CC1 (stereo not shown) | hi |
| CC(C)=CC(CC(C)(C)c1ccc(C)cc1)N(C)CC1CCOCC1 (stereo not shown) | hi |
| CC(C)=CC(CCc1ccc(F)cc1)N1CCC(C2CCOCC2)CC1 (stereo not shown) [Compound 65] | med |

The reported numbers originate from patent US11214540B2.
